# Target: M. SssI (Spiroplasma monobiae, UniProt P15840)
# Sequence (P15840 whole entry, looked up): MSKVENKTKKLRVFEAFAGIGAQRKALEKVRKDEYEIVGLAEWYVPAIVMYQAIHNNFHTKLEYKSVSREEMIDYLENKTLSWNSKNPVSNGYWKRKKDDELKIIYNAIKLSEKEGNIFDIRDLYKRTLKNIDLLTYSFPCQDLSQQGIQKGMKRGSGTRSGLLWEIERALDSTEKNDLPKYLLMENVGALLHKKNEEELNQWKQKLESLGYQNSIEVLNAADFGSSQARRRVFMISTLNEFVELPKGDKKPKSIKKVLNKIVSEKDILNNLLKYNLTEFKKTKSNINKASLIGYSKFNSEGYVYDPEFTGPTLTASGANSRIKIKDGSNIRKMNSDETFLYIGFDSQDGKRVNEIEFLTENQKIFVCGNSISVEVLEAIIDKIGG
# Assay procedure: in vitro DNA methylation assay with biotin/digoxigenin-labelled ds-oligonucleotide, HpaII cleavage and fluorescence readout
Assay metric: pIC50
Convention used: pIC50 is expressed as -log10 of the molar concentration.

Input: What pIC50 appears in the records for this molecule with M. SssI (Spiroplasma monobiae, UniProt P15840)? `CC1=CC(=O)C(C(C)C)=CC1=O`
Output: 7.52
